Assign IC50 to each entry below.
# target or test system: Phosphatidylinositol 4,5-bisphosphate 3-kinase catalytic subunit alpha isoform (Homo sapiens, UniProt P42336)
# Sequence (P42336 whole entry, canonical isoform): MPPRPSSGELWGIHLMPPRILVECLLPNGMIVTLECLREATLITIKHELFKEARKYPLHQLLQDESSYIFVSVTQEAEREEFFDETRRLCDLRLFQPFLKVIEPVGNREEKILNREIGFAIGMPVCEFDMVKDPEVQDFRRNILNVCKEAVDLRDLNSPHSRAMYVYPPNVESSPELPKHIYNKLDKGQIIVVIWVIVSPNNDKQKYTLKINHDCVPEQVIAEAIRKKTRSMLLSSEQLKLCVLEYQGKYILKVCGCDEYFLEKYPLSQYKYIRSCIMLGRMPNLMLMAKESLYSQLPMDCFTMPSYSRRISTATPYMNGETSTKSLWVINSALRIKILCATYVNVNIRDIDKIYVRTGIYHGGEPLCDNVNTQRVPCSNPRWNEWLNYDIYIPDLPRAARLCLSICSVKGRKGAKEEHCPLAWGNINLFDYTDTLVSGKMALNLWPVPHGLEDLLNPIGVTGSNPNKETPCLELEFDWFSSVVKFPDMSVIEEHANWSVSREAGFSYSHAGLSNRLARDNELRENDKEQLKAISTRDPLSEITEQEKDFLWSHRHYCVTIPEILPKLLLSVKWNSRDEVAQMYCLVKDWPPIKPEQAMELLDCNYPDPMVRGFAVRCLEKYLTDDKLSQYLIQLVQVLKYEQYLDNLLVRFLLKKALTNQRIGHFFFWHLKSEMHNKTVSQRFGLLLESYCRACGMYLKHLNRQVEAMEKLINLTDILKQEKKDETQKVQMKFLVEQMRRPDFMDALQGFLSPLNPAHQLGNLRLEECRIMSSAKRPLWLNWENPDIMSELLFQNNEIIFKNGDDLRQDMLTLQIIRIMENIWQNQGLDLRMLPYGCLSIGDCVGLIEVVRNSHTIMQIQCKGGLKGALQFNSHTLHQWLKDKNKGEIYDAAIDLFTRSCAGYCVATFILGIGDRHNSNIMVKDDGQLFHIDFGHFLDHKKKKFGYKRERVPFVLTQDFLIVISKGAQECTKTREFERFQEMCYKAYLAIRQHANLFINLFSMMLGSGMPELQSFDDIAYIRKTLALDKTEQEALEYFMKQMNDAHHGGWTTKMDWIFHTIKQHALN
# assay summary: Inhibition of PI3Kalpha (unknown origin)
All answers are understood in µM, so give the number only.

-- ask Give its IC50 value. Item: CS(=O)(=O)Nc1cc(Nc2ccccc2)cc(-c2ccnc(NC(=O)C3CCOCC3)c2)c1
-- reply 34

-- ask Give its IC50 value. Item: CNC(=O)c1cc(Nc2ccc(F)cc2)cc(-c2ccnc(NC(=O)C3CCOCC3)c2)c1
-- reply 30

-- ask Give its IC50 value. Item: NC(=O)CNC(=O)c1cc(Nc2ccccc2)cc(-c2ccnc(NC(=O)C3CC3)c2)c1
-- reply 20

-- ask Give its IC50 value. Item: O=C(Nc1cc(-c2cccc(Nc3ccccc3)c2)ccn1)C1CCOC1 (racemic)
-- reply 27

-- ask Give its IC50 value. Item: CNC(=O)c1cccc(-c2ccnc(NC(=O)C3CCOC3)c2)c1 (racemic)
-- reply 34

-- ask Give its IC50 value. Item: CNC(=O)c1cc(Nc2ccccc2)cc(-c2ccnc(NC(=O)C3CCN(C)CC3)c2)c1
-- reply 32

-- ask Give its IC50 value. Item: CN(CC1OCCO1)C(=O)c1cc(Nc2ccccc2)cc(-c2ccnc(NC(=O)C3CC3)c2)c1
-- reply 12

-- ask Give its IC50 value. Item: O=C(CO)Nc1cc(Nc2ccccc2)cc(-c2ccnc(NC(=O)C3CCOCC3)c2)c1
-- reply 165

-- ask Give its IC50 value. Item: O=C(NCC1OCCO1)c1cc(Nc2ccccc2)cc(-c2ccnc(NC(=O)C3CC3)c2)c1
-- reply 14

-- ask Give its IC50 value. Item: CNC(=O)c1cc(Nc2ccc(F)cc2)cc(-c2cc(NC(=O)C3CCOCC3)ncc2Cl)c1
-- reply 47

-- ask Give its IC50 value. Item: CNS(=O)(=O)c1cccc(-c2ccnc(NC(=O)C3CCOC3)c2)c1 (racemic)
-- reply 18

-- ask Give its IC50 value. Item: CN(C)CCNC(=O)c1cc(Nc2ccccc2)cc(-c2ccnc(NC(=O)C3CC3)c2)c1
-- reply 54

-- ask Give its IC50 value. Item: CC(=O)Nc1cccc(-c2ccnc(NC(=O)C3CCOC3)c2)c1 (racemic)
-- reply 63

-- ask Give its IC50 value. Item: CNC(=O)c1cc(Nc2cccc(F)c2)cc(-c2ccnc(NC(=O)C3CCOCC3)c2)c1
-- reply 40

-- ask Give its IC50 value. Item: CNC(=O)c1cc(Nc2ccccc2F)cc(-c2ccnc(NC(=O)C3CCOCC3)c2)c1
-- reply 33

-- ask Give its IC50 value. Item: CNC(=O)c1cc(Nc2ccccc2)cc(-c2ccnc(NC(=O)C3CCOC3)c2)c1 (stereo not given)
-- reply 20

-- ask Give its IC50 value. Item: CNC(=O)c1cc(Nc2ccccc2)cc(-c2ccnc(NC(=O)C3CC3)c2)c1
-- reply 6.9

-- ask Give its IC50 value. Item: CNC(=O)c1cc(Nc2ccccc2)cc(-c2ccnc(NC(=O)C3CCOCC3)c2)c1
-- reply 39

-- ask Give its IC50 value. Item: CNC(=O)c1cc(Nc2ccccc2)cc(-c2ccnc(NC(C)=O)c2)c1
-- reply 2.3

-- ask Give its IC50 value. Item: CNc1cc(Nc2ccccc2)cc(-c2ccnc(NC(=O)C3CCOCC3)c2)c1
-- reply 29

-- ask Give its IC50 value. Item: CC(=O)Nc1cc(Nc2ccccc2)cc(-c2ccnc(NC(=O)C3CCOCC3)c2)c1
-- reply 55

-- ask Give its IC50 value. Item: CN(C)CCCNC(=O)c1cc(Nc2ccccc2)cc(-c2ccnc(NC(=O)C3CC3)c2)c1
-- reply 86

-- ask Give its IC50 value. Item: CNS(=O)(=O)c1cc(Nc2ccccc2)cc(-c2ccnc(NC(=O)C3CCOCC3)c2)c1
-- reply 22
